settings: a range is the spread between reports
Form field: melting point (one value per entry).

For orientation, consider the following solved cases.
{"compound": "CCCCCC1CCCCC1", "parameter": "melting point", "readout.value": "-58 to -57.5 °C"}
{"compound": "O=C=Nc1ccc(Cc2ccc(N=C=O)cc2)cc1", "parameter": "melting point", "readout.value": "37.2 to 38 °C"}
{"compound": "c1ccc2c(c1)Sc1ccccc1S2", "parameter": "melting point", "readout.value": "159 °C"}
{"compound": "O=S(=O)(F)F", "parameter": "melting point", "readout.value": "-136 °C"}
{"compound": "C=CCCCCCCCCCCCCCC", "parameter": "melting point", "readout.value": "4 to 4.1 °C"}

### Prompt // returns reported melting point for input OC1CCCCC1
### Response 21 to 25.9 °C

### Prompt // returns reported melting point for input O=C(O)c1cccc(O)c1O
### Response 204 to 206 °C

### Prompt // returns reported melting point for input c1c[nH]cn1
### Response 90 to 90.5 °C

### Prompt // returns reported melting point for input Cc1cccc(C(C)C)c1
### Response -64 to -63.7 °C

### Prompt // returns reported melting point for input CCCCCCCCCS
### Response -20.1 to -20 °C

====

conditions: a range is the spread between reports
parameter: melting point

For orientation, consider the following solved cases.
{"molecule": "CC1(O)CCCC1", "melting point": "36 to 37 °C"}
{"molecule": "CC(C)=O", "melting point": "-95 to -94 °C"}
{"molecule": "O=[N+]([O-])c1ccc(C(F)(F)F)cc1", "melting point": "39 to 40 °C"}
{"molecule": "O=C(O)CI", "melting point": "81 to 82.5 °C"}
{"molecule": "ClC/C=C/CCl", "melting point": "2 to 3.5 °C"}

### Prompt // returns reported melting point for input O=[N+]([O-])c1cccc(CO)c1
### Response 30.5 to 32 °C

====

settings: a range is the spread between reports
parameter: melting point

For orientation, consider the following solved cases.
{"compound": "CCCl", "parameter": "melting point", "readout.value": "-139 °C"}
{"compound": "O=Cc1ccc2ccccc2c1", "parameter": "melting point", "readout.value": "61 to 62 °C"}
{"compound": "Nc1ccc(Cl)cc1", "parameter": "melting point", "readout.value": "70 to 72.5 °C"}
{"compound": "SCCS", "parameter": "melting point", "readout.value": "-41.2 to -41 °C"}
{"compound": "CCNc1nc(Cl)nc(NCC)n1", "parameter": "melting point", "readout.value": "226 to 228 °C"}
{"compound": "NC(=O)NCc1ccccc1", "parameter": "melting point", "readout.value": "148 to 149 °C"}

Now let's try a different one.
### Prompt // returns reported melting point for input O=[N+]([O-])c1ccco1
### Response 30 to 31 °C

====

conditions: a range is the spread between reports
Form field: melting point (one value per entry).

{"compound": "O=C(c1ccccc1)c1ccc(-c2ccccc2)cc1", "melting point": "100 to 101 °C"}
{"compound": "BrC1c2ccccc2-c2ccccc21", "melting point": "103 to 104 °C"}
{"compound": "O=c1[nH]c2ccccc2n1CCCN1CCC(n2c(=O)[nH]c3cc(Cl)ccc32)CC1", "melting point": "238 to 242 °C"}
{"compound": "Clc1ccc2ccccc2n1", "melting point": "36 to 38 °C"}
{"compound": "O=C(O)C=Cc1cccc(Br)c1", "melting point": "177 to 180 °C"}

### Prompt // returns reported melting point for input CCCCCCC#N
### Response -64 to -63 °C

### Prompt // returns reported melting point for input CC(=O)Nc1ccc([N+](=O)[O-])cc1
### Response 215 to 216 °C

### Prompt // returns reported melting point for input C=CCCCCCCCCCCCCCCCCCC
### Response 28.5 to 29 °C

### Prompt // returns reported melting point for input c1ccsc1
### Response -39.4 to -38 °C

### Prompt // returns reported melting point for input c1ccc(C(c2ccccc2)c2ccccc2)cc1
### Response 93 to 94 °C

### Prompt // returns reported melting point for input CCC(C)(C)CC(C)C
### Response -113 °C

### Prompt // returns reported melting point for input CNC(=O)CSP(=S)(OC)OC
### Response 51.5 to 52 °C

====

settings: a range is the spread between reports
parameter: melting point

{"molecule": "CC(=O)Oc1ccc(C(C)=O)cc1", "parameter": "melting point", "readout.value": "53 to 54 °C"}
{"molecule": "O=C1CCCC(=O)C1", "parameter": "melting point", "readout.value": "103 to 106 °C"}
{"molecule": "Clc1ccc(-c2ccccc2)cc1", "parameter": "melting point", "readout.value": "78 to 78.8 °C"}
{"molecule": "O=C(CO)c1ccccc1", "parameter": "melting point", "readout.value": "4.5 to 6 °C"}
{"molecule": "N#CCCCCCCC#N", "parameter": "melting point", "readout.value": "-3.5 to -3 °C"}
{"molecule": "CC(C)(CC(=O)O)CC(=O)O", "parameter": "melting point", "readout.value": "101 to 104 °C"}

### Prompt // returns reported melting point for input CC(Oc1ccccc1Cl)C(=O)O (stereo unspecified)
### Response 113 to 114 °C

### Prompt // returns reported melting point for input Brc1cc(Br)c(Br)s1
### Response 27 to 29 °C

### Prompt // returns reported melting point for input O=CNc1ccccc1
### Response 46 to 47 °C

### Prompt // returns reported melting point for input O=C(Nc1ccccc1)c1ccccc1
### Response 163 to 164 °C

### Prompt // returns reported melting point for input Fc1ccccc1-c1ccccc1
### Response 73.5 to 74 °C

### Prompt // returns reported melting point for input COc1ccc(-c2cc(=O)c3c(O)c(OC)c(O)cc3o2)cc1
### Response 221 to 225 °C

### Prompt // returns reported melting point for input CC(=O)NCCCCCC(=O)O
### Response 104 °C

### Prompt // returns reported melting point for input O=C1OC(c2ccc(O)cc2)(c2ccc(O)cc2)c2ccccc21
### Response 260 to 262 °C

### Prompt // returns reported melting point for input ClCCCBr
### Response -59 to -58.9 °C

### Prompt // returns reported melting point for input ClC(c1ccccc1)(c1ccccc1)c1ccccc1
### Response 112 to 114 °C

### Prompt // returns reported melting point for input CC(C)(O)C(=O)O
### Response 79 to 82.5 °C

### Prompt // returns reported melting point for input S=C=Nc1ccc(N=C=S)cc1
### Response 131 to 132 °C

### Prompt // returns reported melting point for input C=CC
### Response -185 °C

### Prompt // returns reported melting point for input c1ccc2c(c1)Nc1ccccc1S2
### Response 184 to 188 °C

### Prompt // returns reported melting point for input Oc1ccccc1F
### Response 15 to 16.1 °C

### Prompt // returns reported melting point for input CCCCCCCCC(=O)O
### Response 10 to 12.3 °C

### Prompt // returns reported melting point for input C=C(C)C(C)CC (stereo unspecified)
### Response -134 °C

### Prompt // returns reported melting point for input CS(=O)(=O)c1ccccc1
### Response 86 to 87 °C

### Prompt // returns reported melting point for input O=C1CCC(=O)N1Cl
### Response 148 to 150 °C

### Prompt // returns reported melting point for input O=Cc1ccco1
### Response -38.1 to -36 °C

====

conditions: a range is the spread between reports
parameter: melting point

For orientation, consider the following solved cases.
{"compound": "O=C(O)c1ccsc1", "melting point": "138 to 139 °C"}
{"compound": "ClCC(CCl)(CCl)CCl", "melting point": "95 to 97 °C"}
{"compound": "CCCCC1CCCCC1", "melting point": "-78 to -74.7 °C"}
{"compound": "COC(=O)C(Cl)(Cl)Cl", "melting point": "-18 to -17.5 °C"}
{"compound": "CNc1ccccc1[N+](=O)[O-]", "melting point": "35 to 38 °C"}
{"compound": "COC(=O)c1ccc(C#N)cc1", "melting point": "62 to 67 °C"}
{"compound": "NC(=O)NO", "melting point": "141 to 144 °C"}
{"compound": "Oc1ccccc1Cl", "melting point": "7 to 9.8 °C"}
{"compound": "CC/C=C/CC(=O)O", "melting point": "11 to 12 °C"}
{"compound": "C=C(C)c1ccc(C(=C)C)cc1", "melting point": "63.5 to 66 °C"}

### Prompt // returns reported melting point for input CN(C)c1ccc(Br)cc1
### Response 54 to 55 °C

### Prompt // returns reported melting point for input Cc1c(C(=O)O)cnn1-c1ccccc1
### Response 167 to 168 °C

### Prompt // returns reported melting point for input O=C(O)COc1ccc(F)cc1
### Response 104 to 105 °C

### Prompt // returns reported melting point for input N#Cc1c2ccccc2cc2ccccc12
### Response 175 to 177 °C

### Prompt // returns reported melting point for input CC(C)(C)c1cc(O)c(C(C)(C)C)cc1O
### Response 216 to 218 °C

### Prompt // returns reported melting point for input CCOC(=O)CC
### Response -73.9 to -73 °C
